Hey, just so you know, these numbers are from patent US8470889B2.

# Test system: PC-3 cells
# experiment summary: MTT cell growth inhibition, PC-3
# conditions used: read-out: IC50 (μM) PC-3, Table 1, 72 h, maximum tested concentration 50 μM

structure: COc1ccc(/C=C/C(O)=C/C(=O)/C=C/C2=C(C)CCCC2(C)C)cc1O
IC50: 38.3 µM

structure: COc1ccc(/C=C/C(O)=C/C(=O)/C=C/C2=C(C)CCCC2(C)C)cn1
IC50: 52.2 µM

structure: CC1=C(/C=C/C(=O)/C=C(O)/C=C/c2ccc(O)cc2)C(C)(C)CCC1
IC50: 50.6 µM

structure: COc1cc(/C=C/C(O)=C/C(=O)/C=C/C2=C(C)CCCC2(C)C)cc(OC)c1OC
IC50: > 50 µM

structure: COc1ccc(/C=C/C(O)=C/C(=O)/C=C/C2=C(C)CCCC2(C)C)cc1OC
IC50: 47.9 µM

structure: COc1cc(/C=C/C(O)=C/C(=O)/C=C/C2=C(C)CCCC2(C)C)ccc1O
IC50: 15.8 µM

structure: COc1cc(/C=C/C(O)=C/C(=O)/C=C/C2=C(C)CCCC2(C)C)cc(OC)c1O
IC50: 26.7 µM

structure: CCOc1ccc(/C=C/C(O)=C/C(=O)/C=C/C2=C(C)CCCC2(C)C)cc1OCC
IC50: 53.3 µM

---

Overview of reported IC50 across a group of compounds:
# System: LNCaP cells
result type: IC50 (µM)

compound: CC1=C(/C=C/C(=O)/C=C/c2ccc(F)cc2)C(C)(C)CCC1
target entity: LNCaP cells
result: 7.3
//
compound: CC1=C(/C=C/C(=O)/C=C/c2ccccc2F)C(C)(C)CCC1O (racemic)
target entity: LNCaP cells
result: 2.9
//
compound: CC1=C(/C=C/C(=O)/C=C/c2cccc(F)c2)C(C)(C)CCC1O (racemic)
target entity: LNCaP cells
result: 4.4
//
compound: CC1=C(/C=C/C(=O)/C=C/c2cccc([N+](=O)[O-])c2)C(C)(C)CCC1O (racemic)
target entity: LNCaP cells
result: 2

---

# System: C4-2B cells
# experiment summary: MTT cell growth inhibition, C4-2B;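 further: cells treated with a dilution series for 72 h, then MTT added and absorbance read at 600 nm, IC50 fitted from dose-response curves by nonlinear regression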
# conditions used: read-out: Cellular IC50 (μM) C4-2B, Table 2, 72 h
Below, each of the molecules is paired with its reported IC50 value.
result type: IC50 (µM)

molecule: COc1ccc(C=CC(=O)C(=Cc2ccc(OC)c(O)c2)C(=O)C=CC2=C(C)CCCC2(C)C)cc1O [Compound 11]
result: 4.5

molecule: COc1cc(C=CC(=O)C(=Cc2cc(OC)c(OC)c(OC)c2)C(=O)C=CC2=C(C)CCCC2(C)C)cc(OC)c1OC [Compound 16]
result: 2.2

molecule: CCn1c2ccccc2c2cc(/C=C(\C(=O)/C=C/C3=C(C)CCCC3(C)C)C(=O)/C=C/c3ccc(O)c(OC)c3)ccc21 [Compound 19]
result: 2.3

molecule: CC1=C(C=CC(=O)C(=Cc2ccc(O)cc2)C(=O)C=Cc2ccc(O)cc2)C(C)(C)CCC1 [Compound 14]
result: 4

molecule: COc1cc(/C=C/C(=O)CC(=O)/C=C/c2ccc(O)c(OC)c2)ccc1O [Curcumin, reference compound]
result: 6.1

molecule: COc1ccc(C=CC(=O)C(=Cc2ccc(OC)c(OC)c2)C(=O)C=CC2=C(C)CCCC2(C)C)cc1OC [Compound 12]
result: 54.4

molecule: CCn1c2ccccc2c2cc(/C=C(\C(=O)/C=C/C3=C(C)CCCC3(C)C)C(=O)/C=C/c3ccc4c(c3)c3ccccc3n4CC)ccc21 [Compound 18]
result: 28.5

molecule: COc1cc(C=CC(=O)C(=Cc2cc(OC)c(O)c(OC)c2)C(=O)C=CC2=C(C)CCCC2(C)C)cc(OC)c1O [Compound 15]
result: 8.5

molecule: COc1cc(/C=C/C(=O)/C(=C/c2ccc3ccccc3n2)C(=O)/C=C/C2=C(C)CCCC2(C)C)ccc1O [Compound 20]
result: 5.3

molecule: COc1ccc(/C=C/C(=O)/C(=C/c2ccc(OC)nc2)C(=O)/C=C/C2=C(C)CCCC2(C)C)cn1 [Compound 17]
result: 12.2

---

Listed below: IC50 values for each entry.
# Test system: MDA PCa 2b cells;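 further: MDA PCa 2b prostate cancer cells in BRFF-HPC1 with 20% FBS, exposed to compounds for 72 h, viable-cell MTT formazan read as absorbance at 600 nm, 0.5% DMSO vehicle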
# conditions used: human, 72 h
result type: IC50

compound: CC1=CCCC(C)(C)C1/C=C/C(=O)/C=C/c1cccc(C(F)(F)F)c1 (centres unmarked) [Compound B17]
result: 4400 nM
--
compound: CC1(C)CCC(O)C=C1/C=C/C(=O)/C=C/c1cnc2ccccc2c1 (centres unmarked) [Compound B95]
result: 1300 nM

---

# System: PC-3 cells
# experiment summary: MTT cell growth inhibition, PC-3
# conditions used: read-out: Cellular IC50 (μM) PC-3, Table 9
Collected IC50 values appear next to each entry.

molecule: CC1(C)CCC(O)C=C1/C=C/C(=O)/C=C/c1csc2ccccc12 (stereo not shown)
IC50 [µM]: 3.3
//
molecule: Cn1c(/C=C/C(=O)/C=C/C2=CC(O)CCC2(C)C)cc2ccccc21 (stereo not shown)
IC50 [µM]: 19.8
//
molecule: CCn1c2ccccc2c2cc(/C=C/C(=O)/C=C/C3=CC(O)CCC3(C)C)ccc21 (stereo not shown)
IC50 [µM]: 8.6
//
molecule: CC1(C)CCC(O)C=C1/C=C/C(=O)/C=C/c1c[nH]c2ccc(Cl)cc12 (stereo not shown)
IC50 [µM]: 24.5
//
molecule: CC1(C)CCC(O)C=C1/C=C/C(=O)/C=C/c1cc2ccccc2s1 (stereo not shown)
IC50 [µM]: 23.8
//
molecule: CC1(C)CCC(O)C=C1/C=C/C(=O)/C=C/c1c(-c2ccccc2)[nH]c2ccccc12 (stereo not shown)
IC50 [µM]: 13.7
//
molecule: CC1(C)CCC(O)C=C1/C=C/C(=O)/C=C/c1cnc2ccccc2c1 (stereo not shown)
IC50 [µM]: 2.3

---

Test system C4-2B cells, IC50 listed for each of the molecules.

molecule: CC1=C(/C=C/C(=O)/C=C/c2ccccc2)C(C)(C)CCC1O (racemic)
IC50 (µM): 1.8
--
molecule: CC1=CCCC(C)(C)C1/C=C/C(=O)/C=C/c1cccc(C)c1 (racemic)
IC50 (µM): 6.2
--
molecule: CC1=C(/C=C/C(=O)/C=C/c2ccc(F)cc2)C(C)(C)CCC1O (racemic)
IC50 (µM): 4
--
molecule: CC1=CCCC(C)(C)C1/C=C/C(=O)/C=C/c1ccccc1F (racemic)
IC50 (µM): 6
--
molecule: CC1=CCCC(C)(C)C1/C=C/C(=O)/C=C/c1ccc(C(F)(F)F)cc1 (racemic)
IC50 (µM): 5.2
--
molecule: CC1=C(/C=C/C(=O)/C=C/c2ccc(F)c(C(F)(F)F)c2)C(C)(C)CCC1O (racemic)
IC50 (µM): 7.3
--
molecule: CC1=CCCC(C)(C)C1/C=C/C(=O)/C=C/c1ccccc1C(F)(F)F (racemic)
IC50 (µM): 11.7
--
molecule: CC1=C(/C=C/C(=O)/C=C/c2cccc(C(F)(F)F)c2)C(C)(C)CCC1O (racemic)
IC50 (µM): 1.4
--
molecule: CC1=CCCC(C)(C)C1/C=C/C(=O)/C=C/c1cccc([N+](=O)[O-])c1 (racemic)
IC50 (µM): 4
--
molecule: CC1=CCCC(C)(C)C1/C=C/C(=O)/C=C/c1cc(C(F)(F)F)ccc1F (racemic)
IC50 (µM): 4.7

---

# Tested on: LNCaP cells
# experiment summary: MTT cell growth inhibition, LNCaP;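 further: MTT formazan absorbance at 600 nm read after 72 h of compound exposure, IC50 fitted by nonlinear regression of dose-response curves, samples run in triplicate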
# conditions used: read-out: Cellular IC50 (μM) LNCaP, Table 2, 72 h
Label Met when IC50 is strictly below 10 µM; at or above that, label Not met.

molecule: COc1cc(/C=C/C(=O)/C(=C/c2ccc3ccccc3n2)C(=O)/C=C/C2=C(C)CCCC2(C)C)ccc1O
discrete label: Met
--
molecule: COc1ccc(C=CC(=O)C(=Cc2ccc(OC)c(OC)c2)C(=O)C=CC2=C(C)CCCC2(C)C)cc1OC
discrete label: Not met
--
molecule: COc1cc(C=CC(=O)C(=Cc2cc(OC)c(OC)c(OC)c2)C(=O)C=CC2=C(C)CCCC2(C)C)cc(OC)c1OC
discrete label: Met
--
molecule: COc1ccc(C=CC(=O)C(=Cc2ccc(OC)c(O)c2)C(=O)C=CC2=C(C)CCCC2(C)C)cc1O
discrete label: Met
--
molecule: CC(=O)/C=C/C1=C(C)CCCC1(C)C [β-Ionone, reference compound]
discrete label: Not met
--
molecule: CCn1c2ccccc2c2cc(/C=C(\C(=O)/C=C/C3=C(C)CCCC3(C)C)C(=O)/C=C/c3ccc(O)c(OC)c3)ccc21
discrete label: Met
--
molecule: CCn1c2ccccc2c2cc(/C=C(\C(=O)/C=C/C3=C(C)CCCC3(C)C)C(=O)/C=C/c3ccc4c(c3)c3ccccc3n4CC)ccc21
discrete label: Not met
--
molecule: COc1cc(C=CC(=O)C(=Cc2cc(OC)c(O)c(OC)c2)C(=O)C=CC2=C(C)CCCC2(C)C)cc(OC)c1O
discrete label: Met
--
molecule: CC1=C(C=CC(=O)C(=Cc2ccc(O)cc2)C(=O)C=Cc2ccc(O)cc2)C(C)(C)CCC1
discrete label: Met
--
molecule: CCOc1ccc(C=CC(=O)C(=Cc2ccc(OCC)c(OCC)c2)C(=O)C=CC2=C(C)CCCC2(C)C)cc1OCC
discrete label: Not met
--
molecule: COc1ccc(/C=C/C(=O)/C(=C/c2ccc(OC)nc2)C(=O)/C=C/C2=C(C)CCCC2(C)C)cn1
discrete label: Not met
--
molecule: COc1cc(/C=C/C(=O)CC(=O)/C=C/c2ccc(O)c(OC)c2)ccc1O [Curcumin, reference compound]
discrete label: Met
